Quick record of AC50 values for UniProtKB P41145.
Sequence (P41145 whole entry): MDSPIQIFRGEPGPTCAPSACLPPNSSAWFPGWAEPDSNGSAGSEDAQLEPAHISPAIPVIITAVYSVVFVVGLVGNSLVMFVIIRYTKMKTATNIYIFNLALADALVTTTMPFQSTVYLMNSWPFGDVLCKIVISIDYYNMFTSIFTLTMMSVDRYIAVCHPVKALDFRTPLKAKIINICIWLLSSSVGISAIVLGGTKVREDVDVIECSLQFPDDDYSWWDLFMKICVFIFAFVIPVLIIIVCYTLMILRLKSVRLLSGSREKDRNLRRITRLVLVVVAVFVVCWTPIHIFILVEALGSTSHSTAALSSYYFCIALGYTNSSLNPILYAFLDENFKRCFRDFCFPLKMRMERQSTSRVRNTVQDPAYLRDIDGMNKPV

# compound, readoutUnit, resultQualifier, AC50
records = [
    ("O=C(CCCN1CCC(n2c(O)nc3ccccc32)CC1)c1ccc(F)cc1", "µM", "=", 1.15),
    ("CC1(C)O[C@@H]2[C@@H](CO[C@@]3(COS(N)(=O)=O)OC(C)(C)O[C@@H]23)O1 [TOPIRAMATE]", "µM", ">", 10),
    ("Clc1ccc2c(c1)C(c1ccccc1)=NCc1nncn1-2", "µM", "=", 20.1),
    ("N=C(N)c1ccc2cc(OC(=O)c3ccc(N=C(N)N)cc3)ccc2c1", "µM", "=", 17),
    ("CC[N+]1(C)CCCC(OC(=O)C(O)(c2ccccc2)c2ccccc2)C1 (centres undefined) [PIPENZOLATE]", "µM", ">", 30),
    ("CCCCCCNC(=O)n1cc(F)c(=O)[nH]c1=O", "µM", ">", 30),
    ("CN1c2ccccc2C(NCCCCCCC(=O)O)c2ccc(Cl)cc2S1(=O)=O (centres undefined)", "µM", ">", 30),
    ("O=C1CN=C(c2ccccc2)c2cc(Cl)ccc2N1", "µM", "=", 9.97),
    ("O=C(O)c1ccccc1Nc1cccc(C(F)(F)F)c1", "µM", ">", 30),
]

Just for reference, ChEMBL document CHEMBL5291721 is where these values come from.
